- tgt: ZFP SBS#412 (synthetic)
- Sequence (chain, as listed by the source): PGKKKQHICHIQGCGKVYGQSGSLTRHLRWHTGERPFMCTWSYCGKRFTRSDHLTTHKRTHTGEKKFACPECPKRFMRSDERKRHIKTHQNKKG
- method summary: EMSA
- reported conditions: tags: MBP fusion
readout label: Kd (nM)
Reply numerically in nM, unit not repeated.

*Q* Which Kd value is on record for GCGTGGGCG (dsDNA) DNA 1: GCGTGGGCG DNA 2: CGCCCACGC ?
*A* 5
